- test name: chemical genetic growth profiling, strain panel (AID 1159580);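 note: tested at 20 µM; growth read once vehicle control cultures reached saturation at 30 °C; 1 = growth at the plate median or of vehicle wells; lower values mean less growth of the strain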
- condition set: S. cerevisiae deletion strains, growth OD, locus YLR113W, strain HOG1, active compounds read low
Hit rate of the full screen: of about 5,500 compounds, about 2,000 (36%) were called active. Inconclusive results (about 18%) are left out. The list shows a part of the results.
Examples of compounds with documented normalized growth follow.
Note: the reply should be a number with no unit written.

{"compound": "Oc1c(Cl)cc(Cl)cc1Sc1cc(Cl)cc(Cl)c1O", "normalized growth": 0.152}
{"compound": "CC(CCC(=O)O)[C@H]1CCC2C3C(=O)C[C@@H]4CC(=O)CC[C@]4(C)C3CC(=O)[C@@]21C (some centres not stated)", "normalized growth": 1.05}
{"compound": "CC(C)(C)c1cc(C(=O)NNc2cccc(Cl)c2)n(Cc2ccccc2)n1", "normalized growth": 0.787}

Task: Find the recorded normalized growth belonging to `COC(=O)c1sccc1NS(=O)(=O)c1cc(Cl)cc(Cl)c1` and report it.
Result: 0.92

Task: Find the recorded normalized growth belonging to `OC[C@H]1O[C@@](CO)(O[C@@H]2O[C@H](CO)[C@@H](O)[C@H](O)[C@H]2O)[C@@H](O[C@@H]2O[C@H](CO)[C@@H](O)[C@H](O)[C@H]2O)[C@@H]1O` and report it.
Result: 0.986

Task: Find the recorded normalized growth belonging to `NC(=S)N/N=C1/CCCc2ccccc21` and report it.
Result: 1

Task: Find the recorded normalized growth belonging to `O=C(Nc1cccc(Cl)c1)O/N=C1\CCCc2occc21` and report it.
Result: 0.613

Task: Find the recorded normalized growth belonging to `CSc1sc(C(=O)Sc2ccccc2)cc1S(=O)(=O)C(C)C` and report it.
Result: 0.688

Task: Find the recorded normalized growth belonging to CC(C)CCCC(C)[C@H]1CCC2C3CC=C4CC(=O)CC[C@]4(C)C3CC[C@@]21C (some centres not stated) and report it.
Result: 0.91

###

- test name: chemical genetic growth profiling, strain panel (AID 1159580);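 note: tested at 20 µM; growth read once vehicle control cultures reached saturation at 30 °C; 1 = growth at the plate median or of vehicle wells; lower values mean less growth of the strain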
- condition set: S. cerevisiae deletion strains, growth OD, locus YLR262C, strain YPT6 (second series)
In all, about 5,500 compounds went through this assay and about 2,000 (36%) were called active. Inconclusive results (about 18%) are left out. Cut-off read from the data, not from the text of the source: active = normalized growth mostly below about 0.91 (no sharp cut-off); inconclusive = no clear call, values can overlap the other calls; inactive = mostly above about 0.92. The list shows a part of the results.
In this exercise, the only acceptable responses are yes (1) for active, no (0) for inactive

{"molecule": "CN(C)[C@@H]1C(=O)C(C(N)=O)=C(O)[C@@]2(O)C(=O)C3=C(O)c4c(O)ccc(Cl)c4[C@@H](O)[C@H]3C[C@@H]12", "category label": "no (0)"}
{"molecule": "C=C1c2c(Cl)ccc(O)c2C(O)=C2C(=O)[C@]3(O)C(O)=C(C(N)=O)C(=O)[C@@H](N(C)C)[C@@H]3[C@@H](O)[C@H]12", "category label": "no (0)"}
{"molecule": "CC(CCC(=O)O)[C@H]1CCC2C3C(=O)C[C@@H]4CC(=O)CC[C@]4(C)C3CC(=O)[C@@]21C (stereo not given in full)", "category label": "no (0)"}
{"molecule": "CN(C)[C@@H]1C(=O)C(C(N)=O)=C(O)[C@@]2(O)C(=O)C3=C(O)c4c(O)cccc4[C@@](C)(O)[C@H]3[C@H](O)[C@@H]12", "category label": "no (0)"}
{"molecule": "Cc1cc(=O)[nH]c(=S)[nH]1", "category label": "no (0)"}

Task: Which outcome did this test record for the molecule NC(Cn1ccc(=O)c(O)c1)C(=O)O (stereo not given) ?
Result: no (0)

Task: Which outcome did this test record for the molecule `CCCc1cc(=O)[nH]c(=S)[nH]1` ?
Result: no (0)

Task: Which outcome did this test record for the molecule CC(CCC(=O)O)[C@H]1CCC2C3CC[C@@H]4C[C@H](O)CC[C@]4(C)C3C=C[C@@]21C (stereo not given in full) ?
Result: yes (1)

Task: Which outcome did this test record for the molecule `CCCSc1ccc2nc(NC(=O)OC)[nH]c2c1` ?
Result: no (0)

Task: Which outcome did this test record for the molecule `NC1=NCCN1CC(=O)O` ?
Result: no (0)

The measurements presented in this section are drawn from PubChem BioAssay AID1159580.
